- Tested on: E. coli EV36 T7 phage lysis inhibition, OD600
- run description: capsule biogenesis inhibitors via T7 lysis, dose response, EV36 K1 hybrid, OD600, round 7 (AID 624056)
measured endpoint: IC50

[[record]]
compound_structure_string = "CCCCOc1ccc(-c2cc(NC(=O)c3cc(Br)c(Br)o3)c(C(=O)O)s2)cc1"
measured_endpoint = "IC50"
measurement = "0.96 µM"

[[record]]
compound_structure_string = "CCCc1ccc(-c2cc(NC(=O)c3c(F)cccc3F)c(C(=O)O)s2)cc1"
measured_endpoint = "IC50"
measurement = "0.56 µM"

[[record]]
compound_structure_string = "O=C(O)c1sc(-c2ccc(OCCCC(F)(F)F)cc2)cc1NC(=O)c1c(F)cccc1F"
measured_endpoint = "IC50"
measurement = "0.09 µM"

[[record]]
compound_structure_string = "CCCCOc1ccc(-c2cc(NC(=O)c3c(F)cc(F)cc3F)c(C(=O)O)s2)cc1"
measured_endpoint = "IC50"
measurement = "0.33 µM"

[[record]]
compound_structure_string = "O=C(Nc1cc(-c2ccc(OCCCC(F)(F)F)cc2)sc1C(=O)O)c1ccc(Br)o1"
measured_endpoint = "IC50"
measurement = "0.48 µM"

[[record]]
compound_structure_string = "O=C(O)c1sc(-c2ccc(OCCC(F)(F)F)cc2)cc1NC(=O)c1c(F)cccc1F"
measured_endpoint = "IC50"
measurement = "0.05 µM"


// query Hello, I am looking for reported IC50 with E. coli EV36 T7 phage lysis inhibition, OD600 for `O=C(O)c1sc(-c2ccc(OCC(F)(F)F)cc2)cc1NC(=O)c1c(F)cc(F)cc1F` . Could you help?
// result 1.88 µM

// query Could you do the same for `O=C(O)c1sc(-c2ccc(OCC(F)(F)F)cc2)cc1NC(=O)c1c(F)cccc1F` , please?
// result 0.35 µM

// query Could you do the same for `O=C(O)c1sc(-c2ccc(OCCCC(F)(F)F)cc2)cc1NC(=O)c1c(F)cc(F)cc1F` , please?
// result < 0.65 µM
